For reference, Ki measured on HPK1 (Homo sapiens (Human)):
Express it in nM; write the number only.

Please review the entries below; each comes with its answer.
>>> measured_result("CN(C)C(=O)c1c(N)ccc(-c2cnc3c(c2Cl)[C@]2(CC[C@@](C)(C#N)CC2)CN3)c1F [Compound 250b]")
41.3
>>> measured_result("C[C@H]1C[C@@]12CNc1ncc(-c3ccc(N)c(C(=O)N(C)C)c3F)cc12 (relative stereo) [Compound 86a]")
7.9

Field Ki (system: HPK1 (Homo sapiens (Human))) for entry CC(C)(O)c1ccc(-c2cnc3c(c2Cl)C2(CC=CC2)CN3)cc1 = 829

Ki value, target or system HPK1 (Homo sapiens (Human)), for CN(C)C(=O)c1c(N)ccc(-c2cnc3c(c2Cl)[C@@]2(CN3)C[C@@H]2c2ccncc2)c1F (relative stereo) [Compound 198a] : 15.2

Measured Ki for this entry CN(C)C(=O)Cn1cc(-c2cnc3c(c2Cl)C2(CC=CC2)CN3)cn1 on HPK1 (Homo sapiens (Human)): 306

The recorded Ki with HPK1 (Homo sapiens (Human)) for CN(C)C(=O)c1c(N)ccc(-c2cnc3c(c2Cl)[C@]2(CC[C@H](c4cccnc4)C2)CN3)c1F [Compound 145c] was 10.4

Value sought: Ki, system HPK1 (Homo sapiens (Human)), item CN(C)C(=O)c1c(N)ccc(-c2cnc3c(c2Cl)[C@]2(CC[C@H](Oc4ccccn4)C2)CN3)c1F (relative stereo) [Compound 173a] . Result: 6.75

----------
# target.under.test: HPK1 (Homo sapiens (Human), UniProt Q92918)
# Sequence (Q92918 1-346 limits assumed): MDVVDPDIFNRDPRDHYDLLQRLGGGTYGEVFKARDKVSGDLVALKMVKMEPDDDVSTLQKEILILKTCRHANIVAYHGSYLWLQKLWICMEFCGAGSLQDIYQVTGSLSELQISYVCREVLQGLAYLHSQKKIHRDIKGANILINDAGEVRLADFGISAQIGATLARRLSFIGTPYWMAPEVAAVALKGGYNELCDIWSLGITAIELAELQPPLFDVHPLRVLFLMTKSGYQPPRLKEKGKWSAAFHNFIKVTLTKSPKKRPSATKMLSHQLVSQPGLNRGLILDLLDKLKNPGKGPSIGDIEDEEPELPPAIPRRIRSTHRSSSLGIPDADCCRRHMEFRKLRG
Documented Ki across a set of compounds
Report as a plain number; the unit nM is understood.

In the examples that follow, each entry is paired with its recorded Ki.
>>> measured_result("CN(C)C(=O)c1cccc(-c2cnc3c(c2)C2(CC2)CN3)c1F [Compound 149]")
33.5
>>> measured_result("CN(C)C(=O)c1c(N)ccc(-c2cnc3c(c2Cl)[C@]2(CC[C@H](CN)C2)CN3)c1F (relative stereo) [Compound 127a]")
165
>>> measured_result("CN(CC#N)C(=O)C1(c2cccc(-c3cnc4c(c3Cl)C3(CC=CC3)CN4)c2)CC1 [Compound 270]")
331
>>> measured_result("CC(=O)NCc1ccc(-c2cnc3c(c2Cl)C2(CC=CC2)CN3)cc1 [Compound 212]")
112

Sample CO[C@H]1CC[C@@]2(CNc3ncc(-c4ccc(N)c(C(=O)N(C)C)c4F)c(Cl)c32)C1 (relative stereo) [Compound 81c] , system: HPK1 (Homo sapiens (Human), UniProt Q92918). Its Ki is 17.7

Entry OCC1(c2ccc(-c3cnc4c(c3Cl)C3(CC=CC3)CN4)cc2)CC1 [Compound 204] ; assay system HPK1 (Homo sapiens (Human), UniProt Q92918); Ki recorded at 285

Measured on HPK1 (Homo sapiens (Human), UniProt Q92918), CN(C)C(=O)c1c(N)ccc(-c2cnc3c(c2)[C@]2(CN3)C[C@@H](CC#N)C2)c1F [Compound 95a] has a documented Ki of 120

----------
# target.under.test: HPK1 (Homo sapiens (Human), UniProt Q92918)
endpoint.name: pKi
Value format note: pKi is -log10 of concentration (mol/L); just state the number.

Below, each entry is followed by its recorded pKi result.
>>> measured_result("Cc1c(CC#N)ccnc1-c1cccc(-c2cnc3c(c2Cl)[C@@]2(CC[C@@](C)(C#N)C2)CN3)c1F (single isomer, unassigned) [Compound 266b]")
8.41
>>> measured_result("CC[C@H]1C[C@@]12CNc1ncc(-c3ccc(N)c(C(=O)N(C)C)c3F)c(Cl)c12 (relative stereo) [Compound 150a]")
8.48
>>> measured_result("Cn1cc(C2CCCCN2C(=O)c2cccc(-c3cnc4c(c3Cl)[C@]3(CC[C@H](O)CC3)CN4)c2F)cn1 (single isomer, unassigned) [Compound 246b]")
6.50

CN(C)C(=O)c1c(N)ccc(-c2cnc3c(c2Cl)[C@]2(CC[C@](O)(Cn4cncn4)C2)CN3)c1F (single isomer, unassigned) [Compound 116c] has a reported pKi of 6.85

According to the records, this molecule CN(C)C(=O)c1c(N)ccc(-c2cnc3c(c2)C2(CN3)CC2(C)C)c1F (stereo not drawn) [Compound 24] displays pKi of 7.05

For reference, reported pKi for CC[C@H]1C[C@]12CNc1ncc(-c3ccc(N)c(C(=O)N(C)C)c3F)cc12 (single isomer, unassigned) [Compound 243d] stands at 7.60

----------
Record type: log10(Ki) measurement. Applies to: HPK1 (Homo sapiens (Human))
Please be aware that the numbers have been log10-transformed from Ki in nM.

See these solved cases before continuing.
>>> measured_result("Nc1cc(-c2cnc3c(c2Cl)[C@]2(CC[C@H](O)C2)CN3)cc(-c2ncccc2CO)c1 (single isomer, unassigned) [Compound 61a]")
1.59
>>> measured_result("CN(C)C(=O)c1c(N)ccc(-c2cnc3c(c2Cl)[C@]2(CC[C@H](C(C)(C)O)CC2)CN3)c1F [Compound 255a]")
1.30
>>> measured_result("c1cc2c(-c3cnc4c(c3)C3(CC3)CN4)c[nH]c2cn1")
1.63

HPK1 (Homo sapiens (Human)) assay, molecule O=C(c1cccc(-c2cnc3c(c2)C2(CC2)CN3)c1F)N1CCC12COC2 , recorded log10(Ki) = 1.79

----------
# target.under.test: HPK1 (Homo sapiens (Human), UniProt Q92918)
# note: boundary value 0.03 µM maps to False; Ki below it maps to True

>>> class_assignment("Cn1cc([C@H]2CCCCN2C(=O)c2cccc(-c3cnc4c(c3)C3(CC3)CN4)c2F)cn1 (single isomer, unassigned) [Compound 175a]")
"True"

Task item: Criterion: Ki strictly below 0.03 µM. Is it met by CN(C)C(=O)c1c(N)ccc(-c2cnc3c(c2Cl)[C@]2(CC[C@H](c4ncn[nH]4)C2)CN3)c1F (single isomer, unassigned) [Compound 99a] ?
Reply: True

Task item: Bench note: check whether Cn1cc(C2CCCCN2C(=O)c2c(N)ccc(-c3cnc4c(c3Cl)[C@]3(CC[C@H](O)CC3)CN4)c2F)cn1 (single isomer, unassigned) [Compound 254a] shows Ki below 0.03 µM
Reply: True

Task item: Dear colleague, could you confirm whether Ki of Cc1cn([C@H]2CC[C@@]3(CNc4ncc(-c5ccc(N)c(C(=O)N(C)C)c5F)c(Cl)c43)C2)nc1N (relative stereo) [Compound 177a] falls below 0.03 µM? Thanks.
Reply: True

----------
# target.under.test: HPK1 (Homo sapiens (Human), UniProt Q92918)
Threshold check on Ki: strictly below 20 nM is TRUE; on or above 20 nM is FALSE.

Some entries whose results are on file:
>>> class_assignment("CN(C)C(=O)c1c(N)ccc(-c2cnc3c(c2Cl)[C@]2(CC[C@H](C#N)CC2)CN3)c1F [Compound 241b]")
"TRUE"
>>> class_assignment("CN(C)C(=O)c1c(N)ccc(-c2cnc3c(c2)[C@]2(CN3)C[C@H](O)C2)c1F [Compound 77a]")
"FALSE"
>>> class_assignment("CN(C)C(=O)c1c(N)ccc(-c2cnc3c(c2Cl)[C@]2(CC[C@](C)(C(N)=O)C2)CN3)c1F (relative stereo) [Compound 132a]")
"TRUE"
>>> class_assignment("Cn1cc([C@@H]2CCCCN2C(=O)c2c(N)ccc(-c3cnc4c(c3Cl)C3(CC=CC3)CN4)c2F)cn1 (single isomer, unassigned) [Compound 239b]")
"FALSE"
>>> class_assignment("CN(C)C(=O)c1c(N)ccc(-c2cnc3c(c2Cl)[C@]2(CC[C@H](CO)C2)CN3)c1F (relative stereo) [Compound 259a]")
"TRUE"
>>> class_assignment("CN(C)C(=O)c1c(N)ccc(-c2cnc3c(c2)C2(CN3)CC(=CC(N)=O)C2)c1F (stereo not drawn)")
"FALSE"

Moving on to the next compound.
Task item: Record CN(C)C(=O)c1c(N)ccc(-c2cnc3c(c2Cl)[C@]2(CC[C@@](O)(CC#N)C2)CN3)c1F (relative stereo) [Compound 109c] : is its Ki strictly below 20 nM?
Reply: FALSE

----------
For HPK1 (Homo sapiens (Human), UniProt Q92918), measured Ki is reported for the entries below.
Write the number in nM without appending the unit.

>>> measured_result("CN(C)C(=O)c1c(N)ccc(-c2cnc3c(c2Cl)[C@@]2(CC[C@@H](c4cccnc4)C2)CN3)c1F [Compound 145d]")
19.9
>>> measured_result("CN(C)C(=O)c1c(N)ccc(-c2cnc3c(c2Cl)[C@]2(CC[C@@](C)(C#N)C2)CN3)c1F (relative stereo) [Compound 151a]")
42
>>> measured_result("Cc1c(CC#N)ccnc1-c1cc(N)cc(-c2cnc3c(c2Cl)[C@]2(CC[C@](C)(C#N)C2)CN3)c1 (single isomer, unassigned) [Compound 274a]")
13.3
>>> measured_result("CC[C@]1(C#N)CC[C@@]2(CNc3ncc(-c4ccc(N)c(C(=O)N(C)C)c4F)c(Cl)c32)C1 (relative stereo) [Compound 152a]")
4.35
>>> measured_result("CS(=O)(=O)c1ccc(-c2cnc3c(c2Cl)C2(CC=CC2)CN3)cc1")
276
>>> measured_result("CN(C)C(=O)c1c(N)ccc(-c2cnc3c(c2Cl)C2(CCC(NCC(N)=O)C2)CN3)c1F (stereo not shown)")
490

For record CC(C)[C@@H]1C[C@]12CNc1ncc(-c3ccc(N)c(C(=O)N(C)C)c3F)cc12 [Compound 234b] the listed Ki is 38
